target: MMP-9 (Homo sapiens, UniProt P14780); construct: endogenous in cells; host or cells: HT1080 human fibrosarcoma cells, TPA-stimulated; enzyme purified from conditioned medium; test: Assay for inhibitory activities on MMPs (fluorogenic peptide substrate), MMP-9; format: biochemical; conditions: MMP-9 from HT1080 cells, activated by TPCK-Trypsin; substrate MOCAc-Pro-Leu-Gly-Leu-A2Pr(DNP)-Ala-Arg-NH2
Sequence (P14780 107-707 limits assumed): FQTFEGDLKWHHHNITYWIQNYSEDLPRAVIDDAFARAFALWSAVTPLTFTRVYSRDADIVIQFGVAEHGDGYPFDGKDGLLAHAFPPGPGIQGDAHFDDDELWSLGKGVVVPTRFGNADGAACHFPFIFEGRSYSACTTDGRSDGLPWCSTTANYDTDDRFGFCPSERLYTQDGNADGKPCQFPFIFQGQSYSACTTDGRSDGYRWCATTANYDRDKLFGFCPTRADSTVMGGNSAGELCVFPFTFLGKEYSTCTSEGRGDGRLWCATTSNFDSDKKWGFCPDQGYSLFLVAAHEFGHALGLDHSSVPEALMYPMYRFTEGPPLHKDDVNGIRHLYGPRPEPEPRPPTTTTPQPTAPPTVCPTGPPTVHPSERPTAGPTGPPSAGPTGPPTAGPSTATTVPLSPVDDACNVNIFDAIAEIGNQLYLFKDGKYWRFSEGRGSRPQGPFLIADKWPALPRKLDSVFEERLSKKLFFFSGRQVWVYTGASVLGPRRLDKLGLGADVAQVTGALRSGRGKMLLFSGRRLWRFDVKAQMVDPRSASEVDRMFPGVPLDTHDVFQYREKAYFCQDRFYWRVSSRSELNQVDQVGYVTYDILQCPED
Measurement Kind: log10(IC50) (log10 of the value in nM)

| Chem Smiles | log10(IC50) |
| --- | --- |
| C[C@@H](NS(=O)(=O)c1ccc(-c2ncc(-c3ccc(F)cc3)s2)cc1)C(=O)O | 1.12 |
| C[C@@H](NS(=O)(=O)c1ccc(-c2ncc(-c3ccccc3)s2)cc1)C(=O)O | 1.30 |
| CC(C)[C@H](NS(=O)(=O)c1ccc(-c2ncc(-c3ccc(Cl)cc3)s2)cc1)C(=O)O | 1.17 |
| COc1ccc(-c2cnc(-c3ccc(S(=O)(=O)N[C@H](Cc4ccccc4)C(=O)O)cc3)s2)cc1 | 1.64 |
| CC(C)[C@@H](NS(=O)(=O)c1ccc(-c2ncc(-c3ccc(F)cc3)s2)cc1)C(=O)O | 1.05 |
| COc1ccc(-c2cnc(-c3ccc(S(=O)(=O)N[C@@H](C(=O)O)C(C)C)cc3)s2)cc1 | 1.00 |
| COc1ccc(-c2cnc(-c3ccc(S(=O)(=O)N[C@H](Cc4ccccc4)C(=O)O)cc3)o2)cc1 | 2.24 |
| COc1ccc(-c2cnc(-c3ccc(S(=O)(=O)N[C@H](C)C(=O)O)cc3)s2)cc1 | 1.21 |
| CC(C)[C@H](NS(=O)(=O)c1ccc(-c2ncc(-c3ccccc3)s2)cc1)C(=O)O | 1.85 |
| CSCC[C@@H](NS(=O)(=O)c1ccc(-c2ncc(-c3ccc(Cl)cc3)o2)cc1)C(=O)O | 2.35 |
| COc1ccc(-c2cnc(-c3ccc(S(=O)(=O)N[C@H](CC(C)C)C(=O)O)cc3)s2)cc1 | 1.73 |
| C[C@@H](NS(=O)(=O)c1ccc(-c2ncc(-c3ccc(F)cc3)o2)cc1)C(=O)O | 2.57 |
| COc1ccc(-c2cnc(-c3ccc(S(=O)(=O)N[C@H](CC(C)C)C(=O)O)cc3)o2)cc1 | 2.68 |
| CSCC[C@@H](NS(=O)(=O)c1ccc(-c2ncc(-c3ccc(Cl)cc3)s2)cc1)C(=O)O | 1.38 |
| C[C@@H](NS(=O)(=O)c1ccc(-c2ncc(-c3ccc(Br)cc3)s2)cc1)C(=O)O | 0.76 |
